target: PDGFRα (Homo sapiens (Human)); assay: PDGFRα kinase enzyme assay (Promega PDGFRα Kinase Enzyme System, ADP-Glo); format: biochemical; settings: 11-point dose response, 10,000 nM to 0.169 nM; 150 uM ATP; BLQ = below limit of quantitation; read-out: IC50 Values on PDGFRα Kinase Inhibition, IC50
IC50 overview
Express it in nM; write the number only.

| Compound | Units label | Measured value |
| --- | --- | --- |
| Cn1cc(-c2ccc3c(N4CCN(c5ncc(CC6CCCOC6)cn5)CC4)cnn3c2)cn1 (stereo not shown) [Compound 185] | nM | 510 |

Now, please, on to the next compound.
Exercise: Need IC50, item CN(C)CCn1cc(-c2ccc3c(N4CCN(c5ncc(Cc6ccccc6)cn5)CC4)cnn3c2)cn1 [Compound 43]
Solution: 385

* * *

Reported pIC50 values are given for each entry in this list.
molecular target: PDGFRα (Homo sapiens (Human)); test: PDGFRα kinase enzyme assay (Promega PDGFRα Kinase Enzyme System, ADP-Glo); assay type: biochemical; details: 11-point dose response, 10,000 nM to 0.169 nM; 150 uM ATP; BLQ = below limit of quantitation; read-out: IC50 Values on PDGFRα Kinase Inhibition, IC50
Convention used: pIC50 is expressed as -log10 of the molar concentration.

These solved cases illustrate the format of a correct answer.
| Molecule | pIC50 |
| --- | --- |
| OCCn1cc(-c2ccc3c(N4CCN(c5ncc(Cc6ccccc6)cn5)CC4)cnn3c2)cn1 | 6.92 |
| Cn1cc(-c2ccc3c(N4CCN(c5ncc(Cc6ccccc6)cn5)C(=O)C4)cnn3c2)cn1 | 5.34 |
| CC(C)(C)OC(=O)N1CCN(c2cnn3cc(-c4ccc(F)cc4)ccc23)CC1 | 5.32 |

Exercise: API: value(readout=pIC50, system=PDGFRα (Homo sapiens (Human))) for record CC1CN(c2cnn3cc(-c4cnn(C)c4)ccc23)CCN1C(=O)OC(C)(C)C (centres unmarked)
Solution: 6.37

Exercise: Field: pIC50 (PDGFRα (Homo sapiens (Human))). Entry: Cn1cc(-c2ccc3c(C4=CCN(c5ncc(Cc6ccccc6)cn5)CC4)cnn3c2)cn1
Solution: 5.30

Exercise: Entry CC[C@@H](OC(=O)N1CCN(c2cnn3cc(-c4cnn(C)c4)ccc23)CC1)c1ccccc1 , system PDGFRα (Homo sapiens (Human)): what pIC50 was measured?
Solution: 6.48

Exercise: # returns recorded pIC50 (system: PDGFRα (Homo sapiens (Human))) for CC(OC(=O)N1CCN(c2cnn3cc(-c4cnn(C)c4)ccc23)CC1)c1ccc(C(F)(F)F)c(F)c1 (centres unmarked)
Solution: 7.89

Exercise: Query the reported pIC50 for PDGFRα (Homo sapiens (Human)); item: C[C@@H](OC(=O)N1CCN(c2cnn3cc(-c4cnn(C)c4)ccc23)CC1)c1cccnc1
Solution: 6.26

* * *

MBP Fold Induction (Over vehicle) overview
system: Oligodendrocyte progenitor cells (OPCs); experiment: In vitro OPC differentiation assay, MBP expression (immunocytochemistry); conditions: 72 hours of treatment; fold change over vehicle
Answer field: number only, no words.

Worked cases, answers included:
| Compound | MBP Fold Induction (Over vehicle) |
| --- | --- |
| Cn1cc(-c2ccc3c(N4CCN(c5ccc(Cc6ccccc6)cn5)CC4)cnn3c2)cn1 [Compound 249] | 1.64 |
| Cn1cc(-c2ccc3c(N4CCN(C(=O)OC(C)(C)C)CC4)cnn3c2)cn1 [Compound 11] | 1.93 |
| C[C@@H](OC(=O)N1CCN(c2cnn3cc(-c4cnn(C)c4)ccc23)CC1)c1ccc(Cl)c(Cl)c1 [Compound 311] | 10.47 |
| CCC(CC)OC(=O)N1CCN(c2cnn3cc(-c4cnn(C)c4)ccc23)CC1 [Compound 16] | 5.15 |
| CC[C@@H](OC(=O)N1CCN(c2cnn3cc(-c4cnn(C)c4)ccc23)CC1)c1ccccc1 [Compound 80] | 7.89 |
| Cn1cc(-c2ccc3c(N4CCN(C(=O)CCc5ccccc5)CC4)cnn3c2)cn1 [Compound 1] | 9.82 |

Exercise: # value lookup — system Oligodendrocyte progenitor cells (OPCs), readout MBP Fold Induction (Over vehicle), item Cn1cc(-c2ccc3c(N4CCC(c5ncc(Cc6ccccc6)cn5)C4)cnn3c2)cn1 (centres unmarked) [Compound 36]
Solution: 1.92

Exercise: Item Cc1cccc(Cc2cnc(N3CCN(c4cnn5cc(-c6cnn(C)c6)ccc45)CC3)nc2)c1 [Compound 53] with Oligodendrocyte progenitor cells (OPCs) - MBP Fold Induction (Over vehicle)?
Solution: 1.41

* * *

system: Oligodendrocyte progenitor cells (OPCs); test: In vitro OPC differentiation assay, GPR17 expression (immunocytochemistry); details: 3 μM (10× concentration, final 0.3 μM); 72 hours; fold change over vehicle
Output: class label from GPR17 Fold Induction (Over Vehicle; 3 μM). Mapping: bucket A (below 1), bucket B (1 to below 5), bucket C (5 or more)

Field: example entries. Status: answers known.
| Compound | Label class |
| --- | --- |
| CC(C)OC(=O)N1CCN(c2cnn3cc(-c4cnn(C)c4)ccc23)CC1 [Compound 31] | bucket C |
| Cn1cc(-c2ccc3c(N4CCN(C(=O)OC(C)(C)C)CC4=O)cnn3c2)cn1 [Compound 28] | bucket B |
| CN(CCN(C)c1cnc2nc(C3CCOC3)ccn12)C(=O)OC(C)(C)C (stereo not shown) [Compound 100] | bucket A |
| Cn1cc(-c2ccn3c(N4CCN(c5ncc(Cc6ccccc6)cn5)CC4)nnc3c2)cn1 [Compound 24] | bucket A |

Exercise: Which band does Cn1cc(-c2ccc3c(N4CCN(S(=O)(=O)NCc5ccccc5)CC4)cnn3c2)cn1 [Compound 159] fall in?
Solution: bucket B

Exercise: Which band does Cn1cc(-c2ccc3c(N4CCN(C(=O)N5CCCCC5)CC4)cnn3c2)cn1 [Compound 163] fall in?
Solution: bucket C

* * *

target: PDGFRα (Homo sapiens (Human), UniProt P16234); assay: PDGFRα kinase enzyme assay (Promega PDGFRα Kinase Enzyme System, ADP-Glo); type: biochemical; details: 11-point dose response, 10,000 nM to 0.169 nM; 150 uM ATP; BLQ = below limit of quantitation; read-out: IC50 Values on PDGFRα Kinase Inhibition, IC50
Sequence (P16234 24-1089): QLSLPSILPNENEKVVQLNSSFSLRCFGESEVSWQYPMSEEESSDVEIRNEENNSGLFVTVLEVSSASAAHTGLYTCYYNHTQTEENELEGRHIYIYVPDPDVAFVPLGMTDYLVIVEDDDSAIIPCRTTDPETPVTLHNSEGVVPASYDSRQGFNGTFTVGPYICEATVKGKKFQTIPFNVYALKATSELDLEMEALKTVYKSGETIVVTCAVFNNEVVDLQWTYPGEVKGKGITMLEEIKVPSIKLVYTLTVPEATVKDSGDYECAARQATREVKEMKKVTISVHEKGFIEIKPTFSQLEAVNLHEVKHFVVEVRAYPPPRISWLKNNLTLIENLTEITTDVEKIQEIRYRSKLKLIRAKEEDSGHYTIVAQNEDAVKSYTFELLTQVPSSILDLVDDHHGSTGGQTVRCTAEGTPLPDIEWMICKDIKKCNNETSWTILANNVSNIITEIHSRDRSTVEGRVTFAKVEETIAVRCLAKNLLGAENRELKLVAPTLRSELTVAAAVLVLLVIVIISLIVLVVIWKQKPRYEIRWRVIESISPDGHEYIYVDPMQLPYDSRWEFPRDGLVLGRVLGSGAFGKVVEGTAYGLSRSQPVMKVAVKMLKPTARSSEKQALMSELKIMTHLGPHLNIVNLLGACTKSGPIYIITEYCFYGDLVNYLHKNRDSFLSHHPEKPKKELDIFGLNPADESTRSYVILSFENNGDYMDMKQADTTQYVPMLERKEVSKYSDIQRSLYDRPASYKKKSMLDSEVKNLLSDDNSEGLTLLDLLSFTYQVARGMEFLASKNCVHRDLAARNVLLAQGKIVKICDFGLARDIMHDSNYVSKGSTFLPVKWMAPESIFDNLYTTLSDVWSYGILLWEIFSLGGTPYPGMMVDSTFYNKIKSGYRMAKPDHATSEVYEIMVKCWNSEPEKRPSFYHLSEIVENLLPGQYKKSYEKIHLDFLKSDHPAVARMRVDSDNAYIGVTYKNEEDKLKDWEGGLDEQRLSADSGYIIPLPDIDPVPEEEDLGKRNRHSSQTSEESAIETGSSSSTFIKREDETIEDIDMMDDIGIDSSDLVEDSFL
Measured property: IC50

Worked set:
| Compound | IC50 |
| --- | --- |
| CC(C)(C)OC(=O)N1CCN(c2cnn3cc(-c4cncnc4)ccc23)CC1 [Compound 219] | > 10 µM |
| CN(CCN(C)c1cnc2nc(-c3cnn(C)c3)ccn12)C(=O)OC(C)(C)C [Compound 96] | > 10 µM |

Shifting focus to the compound that follows.
Exercise: I would be grateful if you could share the reported IC50 for CC(C)(C)OC(=O)N1CCN(c2cnn3cc(CCCO)ccc23)CC1 [Compound 204] .
Solution: > 10 µM

* * *

system: Oligodendrocyte progenitor cells (OPCs); assay: In vitro OPC differentiation assay, GPR17 expression (immunocytochemistry); conditions: 3 μM (10× concentration, final 0.3 μM); 72 hours; fold change over vehicle
Parameter class (string): assigned from measured GPR17 Fold Induction (Over Vehicle; 3 μM). Ranges: bin 0 (below 1), bin 1 (1 to below 6), bin 2 (6 or more)

| Compound | System | Label class |
| --- | --- | --- |
| Cn1cc(-c2ccc3c(NC4CN(c5ncc(Cc6ccccc6)cn5)C4)cnn3c2)cn1 | Oligodendrocyte progenitor cells (OPCs) | bin 2 |

Exercise: Assign a category based on measured GPR17 Fold Induction (Over Vehicle; 3 μM) for Cn1cc(-c2ccc3c(N4CCN(c5ncc(Cn6ccc7ccccc76)cn5)CC4)cnn3c2)cn1 and give only the class name.
Solution: bin 2

Exercise: Class? Entry: CC(C)(C)OC(=O)N1CCN(c2cnn3cc(-c4cncn4CCO)ccc23)CC1
Solution: bin 0

Exercise: Hey, which category is CN(C)CCn1cc(-c2ccc3c(N4CCN(c5ncc(Cc6ccccc6)cn5)CC4)cnn3c2)cn1 in, do you know?
Solution: bin 2

* * *

test system: Oligodendrocyte progenitor cells (OPCs); assay: In vitro OPC differentiation assay, GPR17 expression (immunocytochemistry); details: 3 μM (10× concentration, final 0.3 μM); 72 hours; fold change over vehicle
Measured property: GPR17 Fold Induction (Over Vehicle; 3 μM)
# answer = number (no unit)

Exercise: Fill in the blank: the reported GPR17 Fold Induction (Over Vehicle; 3 μM) of Cn1cc(-c2ccc3c(N4CCN(c5ncc([S+]([O-])c6ccccc6)cn5)CC4)cnn3c2)cn1 (stereo not drawn) is ____.
Solution: 4.97

Exercise: For the molecule COc1ccc(Cc2cnc(N3CCN(c4cnn5cc(-c6cnn(C)c6)ccc45)CC3)nc2)cc1 , what GPR17 Fold Induction (Over Vehicle; 3 μM) is on record?
Solution: 6.77

Exercise: Item Cn1cc(-c2cnn3c(N4CCN(C(=O)NCc5ccc(C(F)(F)F)cc5)CC4)cnc3c2)cn1 has what recorded GPR17 Fold Induction (Over Vehicle; 3 μM)?
Solution: 8.65
